Test system: SR leukemia
experimentNotes: NCI tumour cell line growth inhibition, 48 h; in the data active means GI50 below about 0.43 µM; inactive means the rest
Outcome codes: active, inactive

> print(dat)
                                    molecule     group
 1  CCCCCCCCN=C(N)c1ccc(N2CCN(c3ccc(C(N)=NCCCCCCCC)cc3)CC2)cc1  inactive
 2  CC1(C)CC(=O)c2c(C(F)(F)F)nn(-c3ccc(C(N)=O)c(NC4CCC(OC(=O)CN)CC4)c3)c2C1 (stereo not drawn)    active
 3           N#Cc1cccc(CSc2ncnc3nc[nH]c23)c1  inactive
 4  Cc1cc(N(CCCl)CCCl)ccc1C=Nc1ccc(-c2csc(Cc3ccccc3)n2)cc1  inactive
 5  N=C(N)c1ccc(-c2ccc(-c3cc(Cl)cc(Cl)c3)o2)nc1  inactive
 6  O=C1/C(=C\c2c[nH]c3ccccc23)c2ccccc2N1c1c(Cl)cccc1Cl  inactive
 7  CC#C[C@]1(O)CC[C@H]2[C@@H]3CCC4=CC(=O)CCC4=C3[C@@H](c3ccc4c(c3)OCO4)C[C@@]21C  inactive
 8  COc1cc(C2CC(c3ccc4c(c3)OCO4)=NN2C=O)cc(OC)c1OC (stereo not drawn)  inactive
 9          COc1ccc(/C(C#N)=C/c2ccccc2OC)cc1  inactive
10  OC(c1cc(-c2ccccc2)nc2ccc(Cl)cc12)C1CCCCN1 (stereo not drawn)  inactive
11  COC(C(=O)[O][Ge]([CH3])([CH3])[CH3])c1ccccc1 (stereo not drawn)  inactive
12  CCCCCCCCCCCCCCCCN1CC2CCCCC2C1 (stereo not drawn)  inactive
13  O=C(NCCO)Nc1ccc(-c2nc(N3CCOCC3)c3cccn3n2)cc1    active

* * *

Test system: UO-31 renal
experimentNotes: NCI tumour cell line growth inhibition, 48 h

compound	scaleUnit	qualifierOperator	TGI
N#CC12C(=O)N3C(=NC(c4ccccc4)NC3c3ccccc3)C1(C#N)C(c1ccccc1)NC1=C2CCC1 (centres undefined)	µM	>	100
CC(=O)N1C(=O)/C(=C\C(=O)c2ccc([N+](=O)[O-])cc2)c2ccccc21	µM	=	63
O=C(CCCN1CCC2(CC1)OC(=O)N(c1ccccc1)C2=O)c1ccccc1	µM	=	46.3
O=C(NCCO)Nc1ccc(-c2nc(N3CCOCC3)c3cccn3n2)cc1	µM	=	1.63
CN(C)C(=O)OC(Cn1cncn1)c1ccc(Cl)cc1Cl (centres undefined)	µM	>	100
CCOC(=O)c1c(N2CCCC2)nsc1Nc1ccc(F)cc1	µM	=	46.8
COc1ccc(-c2nc3sc4c(c3c(=O)[nH]2)CCCCCC4)cc1	µM	>	33.2
CC1=Nc2ccccc2S/C1=C(/C)NNC(=O)C(N)=O	µM	>	100
CC(CCC(=O)O)[C@H]1CCC2[C@@H]3CC[C@@H]4CC(O)CC[C@]4(C)C3CC[C@@]21C (some centres undefined)	µM	=	67.3
O=Nc1c(O)cc(Nc2ccc(Br)cc2)c2ccccc12	µM	=	23
CC[C@@H](C(=O)O)C1CC[C@H](C)C([C@@H](C)[C@H](O)[C@H](C)C(=O)[C@H](CC)C2O[C@]3(C=C[C@@H](O)[C@]4(CC[C@@](C)(C5CC[C@](O)(CC)[C@H](C)O5)O4)O3)[C@H](C)C[C@@H]2C)O1 (some centres undefined)	µM	=	15.9
C[n+]1c2ccccc2c(C(=O)Nc2ccc(S(=O)(=O)Nc3ccnn3-c3ccccc3)cc2)c2ccccc21	µM	>	100
S=c1sc2c(s1)SCCCCSCCCCSc1sc(=S)sc1SCCCCSCCCCS2	µM	>	100
O=C1CC(c2ccc(O)cc2)C2(O1)C(=O)OC(C(O)CO)C2O (centres undefined)	µM	>	100
CCOC(=O)C(=[N+]=[N-])C(=O)C1(C(=O)OCC)CCN(C(=O)c2ccccc2)C1=O (centres undefined)	µM	>	100
[N-]=[N+]=Nc1c(C=O)c(=O)n2c3c(cccc13)CCC2	µM	=	6.39
COc1ccc(/C(C#N)=C/c2ccccc2OC)cc1	µM	>	100
COC(=O)[C@H](C[C@H](Cc1ccccc1)NC(=O)c1csc([C@@H](C[C@H](C(C)C)N(C)C(=O)[C@@H](NC(=O)[C@H]2CCCCN2C)C(C)C)OC(C)=O)n1)NC(=O)OCc1ccccc1	µM	>	9
CN(C)CCNc1c2c(c(NCCN(C)C)c3[nH]ccc13)C(=O)c1ccccc1C2=O	µM	>	100
